Cited source for all entries: PubChem BioAssay AID620

Test: cytotoxicity in HT1080 fibrosarcoma cells, cell-based, fluorescence readout (AID 620);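 also: cells exposed to compound overnight then 4 h with Alamar Blue; 0% = vehicle DMSO and 100% = killing control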
Conditions: HT1080 viability, at 10 µM, active compounds read high
The whole screen tested about 87,000 compounds, of which about 360 (0.41%) were called active. This excerpt belongs to a sample that is enriched for actives.
The entries below are paired with their reported cytotoxicity.
measuredMetric: cytotoxicity (%)

molecule=CON(C)C(=O)Nc1ccc(Cl)cc1 measuredmetric=cytotoxicity readoutnumber=1.8
molecule="O=C(CN1C2CCC1CC(O)(c1cccnc1)C2)Nc1ccc2c(c1)OCO2 (stereo unspecified)" measuredmetric=cytotoxicity readoutnumber=2.5
molecule=CC(C)CCP(=O)(O)c1ccccc1 measuredmetric=cytotoxicity readoutnumber=0.8
molecule=CCC(=NCCc1c[nH]c2ccccc12)c1c(O)n(C)c(=O)n(C)c1=O measuredmetric=cytotoxicity readoutnumber=3.2
molecule="CCCN1CC(C)C(OC(C)=O)(c2ccccc2)CC1C (stereo unspecified)" measuredmetric=cytotoxicity readoutnumber=1.2
molecule="O=C1CC(N2CCC(n3c(=O)[nH]c4ccccc43)CC2)C(=O)N1Cc1ccccc1 (stereo unspecified)" measuredmetric=cytotoxicity readoutnumber=13.4
molecule=CCN(CC)c1ccc(N=Cc2c(O)n(-c3ccc(OC)cc3)c(=O)[nH]c2=O)cc1 measuredmetric=cytotoxicity readoutnumber=0.4
molecule=Cc1nc2c(=O)n(C)c(=O)nc-2n(C)n1 measuredmetric=cytotoxicity readoutnumber=103
molecule="CC(=O)c1cccc(NC2=NCC(C)S2)c1 (stereo unspecified)" measuredmetric=cytotoxicity readoutnumber=1.4
molecule="COc1ccc(C2NCc3ccc4c(c3-n3cccc32)OCO4)cc1O (stereo unspecified)" measuredmetric=cytotoxicity readoutnumber=67.8
molecule="COc1ccc(C2C(C(=O)N3CCC4(CC3)OCCO4)c3cc(OC)c(OC)cc3C(=O)N2C)cc1 (stereo unspecified)" measuredmetric=cytotoxicity readoutnumber=-12.7
